# study target: H1 HA A/California/07/2009 (Influenza A virus, UniProt C3W5X2)
# experiment: AlphaLISA binding competition, HA + stem-binder
*1 amine or outer side, *2 acyl side, *3 side chain or, on linkers, in order; H or OH if unused. Where a SMILES comes first, the peptide text is derived from it. Bridges are numbered along the chain shown (N, C = ends). [ ]: non-standard residue; d: D form. Phe(3,4-Cl2) = N[C@@H](Cc1ccc(Cl)c(Cl)c1)C(=O)O; X2 = O=C(CN(CC(=O)[*:2])CC(=O)[*:3])[*:1]; X1 = NCCC(=O)N[C@@H](CN[*:2])C(=O)[*:1]; Ala(cPent) = N[C@@H](CC1CCCC1)C(=O)O; Glutaryl = O=C(CCCC(=O)[*:2])[*:1]; hhPhe = N[C@@H](CCCc1ccccc1)C(=O)O; NMeL = CN[C@@H](CC(C)C)C(=O)O; Orn = NCCC[C@H](N)C(=O)O; βAla = NCCC(=O)O
Please go through the items and note down their IC50.
Give bare numbers, in µM.

Guide cases for IC50, answers given:
>  <compound>
CC(=O)N[C@@H](CCCc1ccccc1)C(=O)N[C@H]1CCCNC(=O)CCNC(=O)[C@H](CO)NC(=O)[C@H](CC(C)C)NC(=O)[C@H](Cc2c[nH]c3ccccc23)NC(=O)[C@H](CCC(=O)O)NC(=O)[C@H](Cc2ccccc2)NC(=O)[C@H](Cc2ccc(O)cc2)NC(=O)[C@H](CCCCNC(=O)CCCC(=O)O)NC(=O)[C@H](CC(C)C)NC1=O [CP141066] (Ac-[hhPhe][Orn]LK(Glutaryl)YFEWLS[βAla]; lactam 2-C)

>  <result units>
µM

>  <IC50>
0.245

$$$$
>  <compound>
CC(=O)N[C@@H](CCCc1ccccc1)C(=O)N[C@H]1CCCNC(=O)CCNC(=O)[C@H](CO)NC(=O)[C@H](CC(C)C)NC(=O)[C@H](Cc2c[nH]c3ccccc23)NC(=O)[C@H](CCC(=O)O)NC(=O)[C@H](Cc2ccccc2)NC(=O)[C@H](Cc2ccc(O)cc2)NC(=O)[C@H](CCCNC(=N)N)NC(=O)[C@H](CC(C)C)NC1=O [CP132070] (Ac-[hhPhe][Orn]LRYFEWLS[βAla]; lactam 2-C)

>  <result units>
µM

>  <IC50>
0.288

$$$$
>  <compound>
CC(=O)N[C@@H](CCCc1ccccc1)C(=O)N[C@H]1CCCNC(=O)CCNC(=O)[C@H](CO)NC(=O)[C@H](CC(C)C)NC(=O)[C@H](Cc2c[nH]c3ccccc23)NC(=O)[C@H](CCC(=O)O)NC(=O)[C@H](Cc2ccc(Cl)c(Cl)c2)NC(=O)[C@H](Cc2ccc(O)cc2)NC(=O)[C@H](CCC(=O)O)NC(=O)[C@H](CC(C)C)NC1=O [CP141019] (Ac-[hhPhe][Orn]LEY[Phe(3,4-Cl2)]EWLS[βAla]; lactam 2-C)

>  <result units>
µM

>  <IC50>
0.0708

$$$$

# per-item lookup of IC50; items listed below
1. CC(=O)N[C@@H](CCCc1ccccc1)C(=O)N[C@H]1CCCNC(=O)CCNC(=O)[C@H](CO)NC(=O)[C@H](CC(C)C)NC(=O)[C@H](Cc2c[nH]c3ccccc23)NC(=O)[C@H](CCC(=O)O)NC(=O)[C@H](Cc2ccccc2)NC(=O)[C@H](Cc2ccc(O)cc2)NC(=O)[C@H](CCC(=O)O)NC(=O)[C@H](CC2CCCC2)NC1=O [CP141036] (Ac-[hhPhe][Orn][Ala(cPent)]EYFEWLS[βAla]; lactam 2-C)
2. CC(=O)N[C@@H](CCCNC(=N)N)C(=O)N[C@H]1CCCNC(=O)CN2CC(=O)NCCC[C@@H](C(N)=O)NC(=O)[C@H](CO)NC(=O)[C@H](CC(C)C)NC(=O)[C@H](Cc3c[nH]c4ccccc34)NC(=O)[C@H](CCC(=O)O)NC(=O)[C@H](Cc3ccccc3)NC(=O)[C@H](Cc3ccc(O)cc3)NC(=O)[C@H](CCCNC(=O)C2)NC(=O)[C@H](CC(C)C)NC1=O [CP141032] (Ac-R[Orn]L[Orn]YFEWLS[Orn]-NH2; linker 2-4-11 via X2)
3. CC(=O)N[C@@H](CCCc1ccccc1)C(=O)N[C@H]1CCCNC(=O)CCNC(=O)[C@H](CO)NC(=O)[C@H](CC(C)C)NC(=O)[C@H](Cc2c[nH]c3ccccc23)NC(=O)[C@H](CCC(=O)O)NC(=O)[C@H](Cc2ccccc2)NC(=O)[C@H](Cc2ccc(O)cc2)NC(=O)[C@H](CCC(=O)O)NC(=O)[C@H](CC(C)C)N(C)C1=O [CP141037] (Ac-[hhPhe][Orn][NMeL]EYFEWLS[βAla]; lactam 2-C)
4. CC(=O)N[C@@H](CCCc1ccccc1)C(=O)N[C@H]1CCCNC(=O)[C@@H](NC(=O)CCN)CNC(=O)[C@H](CO)NC(=O)[C@H](CC(C)C)NC(=O)[C@H](Cc2c[nH]c3ccccc23)NC(=O)[C@H](CCC(=O)O)NC(=O)[C@H](Cc2ccccc2)NC(=O)[C@H](Cc2ccc(O)cc2)NC(=O)[C@H](CCC(=O)O)NC(=O)[C@H](CC(C)C)NC1=O [CP141099] (Ac-[hhPhe][Orn]LEYFEWLS; linker 2-C via X1)

Output line:
0.398
9.55
0.204
0.0589
